# method-description: Cytotoxicity, resazurin assay
# Assay type: cell-based, human
# reported-conditions: human, DLD-1 colorectal adenocarcinoma cells, max tested 200 μM
measured-attribute: IC50 at 48 h

The examples below pair each entry with its known result.
molecule: CCCCCCC[C@H](CC(=O)O)OC(=O)C[C@@H](CCCCCCC)O[C@@H]1O[C@@H](C)[C@H](O)[C@@H](O)[C@H]1O [Compound 3, RhaC10C10]
measured-attribute: IC50 at 48 h
reported-result: > 200 µM
--
molecule: CCCCCCCC1CC(=O)OC2C(OC(CCCCCCC)CC(=O)O1)OC(C)C(O)C2O (stereo not drawn) [Compound 5α]
measured-attribute: IC50 at 48 h
reported-result: > 200 µM

Below: the item to evaluate.
molecule CCCCCCC[C@H](CC(=O)O)OC(=O)C[C@@H](CCCCCCC)O[C@@H]1O[C@H](CO)[C@@H](O)[C@H](O)[C@H]1O [Compound 2, ananatoside B] , IC50 at 48 h observed: > 200 µM
